target-or-test-system: hGPR40 (Homo sapiens, UniProt O14842)
Sequence (O14842 whole entry): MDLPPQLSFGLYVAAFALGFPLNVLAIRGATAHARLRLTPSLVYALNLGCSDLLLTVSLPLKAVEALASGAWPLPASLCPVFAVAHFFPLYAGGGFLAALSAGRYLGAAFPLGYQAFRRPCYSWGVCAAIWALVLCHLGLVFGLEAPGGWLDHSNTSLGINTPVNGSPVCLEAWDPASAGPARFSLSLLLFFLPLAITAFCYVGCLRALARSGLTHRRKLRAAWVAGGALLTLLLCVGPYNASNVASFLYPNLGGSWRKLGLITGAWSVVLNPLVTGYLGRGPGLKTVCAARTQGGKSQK
assay-protocol: Calcium flux assay to detect GPR40 activation
test-parameters: CHO-K cells stably expressing hGPR40; Fluo-4 NW; read for 4 min at 5 s intervals
Procedure: Biological Activity Calium Flux Assay to Detect GPR40 Activation: CHO-K cells stably expressing hGPR40 were selected in a media containing Neomycin/G418. The cells were plated at a concentration of 20,000 cells per well in black 96-well clear bottom tissue culture treated plates. […] Compounds were added to the cells and the wells were read in the BioTEK synergy reader and readings were taken for 4 min with an interval of 5 s.
pEC50: −log10 of the molar value.
assay-readout: pEC50

Q: Give pEC50 for CO/N=C(\COc1ccc(COc2ccc(CCC(=O)O)c(OC(C)C)c2)cc1)c1ccccc1 [Compound 60] tested on hGPR40 (Homo sapiens, UniProt O14842).
A: < 7.00

Q: Give pEC50 for CO/N=C(\COc1ccc(COc2ccc(CCC(=O)O)c(OC)c2)cc1)c1ccccc1 [Compound 37] tested on hGPR40 (Homo sapiens, UniProt O14842).
A: < 7.00

Q: Give pEC50 for CO/N=C(\COc1ccc(COc2ccc(CCC(=O)O)c(F)c2)cc1)c1ccccc1 [Compound 71] tested on hGPR40 (Homo sapiens, UniProt O14842).
A: < 7.00

Q: Give pEC50 for CO/N=C(\COc1ccc(COc2ccc(C(C#N)CC(=O)O)cc2)cc1)c1ccccc1 (stereo not drawn) [Compound 18] tested on hGPR40 (Homo sapiens, UniProt O14842).
A: > 8.00

Q: Give pEC50 for CO/N=C(\COc1ccc(COc2ccc(C(C#N)CC(=O)O)c(F)c2)cc1)c1ccccc1 (stereo not drawn) [Compound 77] tested on hGPR40 (Homo sapiens, UniProt O14842).
A: > 8.00

Q: Give pEC50 for CO/N=C(\COc1ccc(COc2ccc(-c3c(C)noc3CC(=O)O)cc2)cc1)c1ccccc1 [Compound 69] tested on hGPR40 (Homo sapiens, UniProt O14842).
A: < 7.00

Q: Give pEC50 for CO/N=C(\COc1ccc(COc2ccc(C(C#N)CC(=O)O)cc2)cc1)c1ccccc1 (single isomer, unassigned; (+)) [Compound 74] tested on hGPR40 (Homo sapiens, UniProt O14842).
A: < 7.00

Q: Give pEC50 for CO/N=C(\COc1ccc(COc2ccc(C(C#N)CC(=O)O)cc2)cc1)c1ccccc1 (single isomer, unassigned; (-)) [Compound 82] tested on hGPR40 (Homo sapiens, UniProt O14842).
A: > 8.00

Q: Give pEC50 for CO/N=C(/c1ccccc1)c1ccc(CNc2ccc(CCC(=O)O)cc2)cc1 [Compound 3] tested on hGPR40 (Homo sapiens, UniProt O14842).
A: < 7.00

Q: Give pEC50 for CO/N=C(\COc1ccc(COc2ccc(CCC(=O)O)cn2)cc1)c1ccccc1 [Compound 114] tested on hGPR40 (Homo sapiens, UniProt O14842).
A: < 7.00

Q: Give pEC50 for CO/N=C(/c1ccccc1)c1cccc(CNc2ccc(C3CC3C(=O)O)cc2)c1 (racemic) [Compound 13] tested on hGPR40 (Homo sapiens, UniProt O14842).
A: 7.00 to 8.00

Q: Give pEC50 for CO/N=C(/COc1ccc(COc2ccc(C(C#N)CC(=O)O)cc2)cc1)c1ccc(OC)cc1 (racemic) [Compound 25] tested on hGPR40 (Homo sapiens, UniProt O14842).
A: > 8.00

Q: Give pEC50 for CON=C(COc1ccc(COc2ccc(CCC(=O)O)c(OCC(=O)O)c2)cc1)c1ccccc1 (mixture of isomers) [Compound 89] tested on hGPR40 (Homo sapiens, UniProt O14842).
A: < 7.00

Q: Give pEC50 for CO/N=C(\COc1ccc(COc2ccc(C(CC(=O)O)C(N)=O)cc2)cc1)c1ccccc1 (stereo not drawn) [Compound 93] tested on hGPR40 (Homo sapiens, UniProt O14842).
A: < 7.00

Q: Give pEC50 for CO/N=C(\COc1ccc(COc2ccc(CCC(=O)O)cc2)cc1)c1ccccc1 [Compound 7] tested on hGPR40 (Homo sapiens, UniProt O14842).
A: > 8.00

Q: Give pEC50 for CO/N=C(/COc1ccc(COc2ccc(C(C#N)CC(=O)O)cc2)cc1)c1ccccc1 (racemic) [Compound 98] tested on hGPR40 (Homo sapiens, UniProt O14842).
A: 7.00 to 8.00

Q: Give pEC50 for CO/N=C(\COc1ccc(COc2ccc(CCC(=O)O)c(O)c2)cc1)c1ccccc1 [Compound 96] tested on hGPR40 (Homo sapiens, UniProt O14842).
A: < 7.00

Q: Give pEC50 for CC#CC(CC(=O)O)c1ccc(OCc2ccc(OC/C(=N\OC)c3ccccc3)cc2)cc1 (stereo not drawn) [Compound 85] tested on hGPR40 (Homo sapiens, UniProt O14842).
A: > 8.00

Q: Give pEC50 for CO/N=C(\COc1ccc(COc2ccc(CCC(=O)O)cc2)cc1)c1ccc(S(C)(=O)=O)cc1 [Compound 92] tested on hGPR40 (Homo sapiens, UniProt O14842).
A: < 7.00

Q: Give pEC50 for CO/N=C(\COc1ccc(COc2ccc(C(C#N)CC(=O)O)cc2)cc1)c1ccccc1 (stereo not drawn) [Compound 31] tested on hGPR40 (Homo sapiens, UniProt O14842).
A: > 8.00

Q: Give pEC50 for CO/N=C(\COc1ccc(-c2ccc(CCC(=O)O)cc2)cc1)c1ccccc1 [Compound 115] tested on hGPR40 (Homo sapiens, UniProt O14842).
A: < 7.00

Q: Give pEC50 for CO/N=C(\COc1ccc(COc2ccc(CCC(=O)O)c(F)c2)cc1OC)c1ccccc1 [Compound 41] tested on hGPR40 (Homo sapiens, UniProt O14842).
A: 7.00 to 8.00

Q: Give pEC50 for CO/N=C(\COc1ccc(COc2ccc(C(C#N)CC(=O)O)cc2)cc1)c1ccc2c(c1)CCO2 (stereo not drawn) [Compound 102] tested on hGPR40 (Homo sapiens, UniProt O14842).
A: 7.00 to 8.00

Q: Give pEC50 for CO/N=C(\COc1ccc(COc2ccc(C(CC(=O)O)c3ccon3)cc2)cc1)c1ccccc1 (stereo not drawn) [Compound 17] tested on hGPR40 (Homo sapiens, UniProt O14842).
A: 7.00 to 8.00

###

Kindly state EC50 for each of the entries shown.
target-or-test-system: hGPR40 (Homo sapiens)
assay-protocol: Calcium flux assay to detect GPR40 activation
test-parameters: CHO-K cells stably expressing hGPR40; Fluo-4 NW; read for 4 min at 5 s intervals

Q: Hello, please tell me recorded EC50 for this one: C=CCO/N=C(/CC(=O)O)c1ccc(OCc2ccc(OCC(=NOC)c3ccccc3)cc2)cc1 (mixture of isomers)
A: > 100 nM

Q: Hello, please tell me recorded EC50 for this one: CO/N=C(\COc1ccc(COc2ccc(/C=C/C(=O)O)c(-c3cc(C)on3)c2)cc1)c1ccccc1
A: > 100 nM

Q: Hello, please tell me recorded EC50 for this one: CO/N=C(\COc1ccc(COc2ccc(CCC(=O)O)c(OCC#N)c2)cc1)c1ccccc1
A: > 100 nM

Q: Hello, please tell me recorded EC50 for this one: CO/N=C(\COc1ccc(COc2ccc(C3CC3C(=O)O)cc2)cc1)c1ccc(C#N)cc1 (stereo not shown) [Compound 51]
A: < 10 nM

Q: Hello, please tell me recorded EC50 for this one: CO/N=C(/COc1ccc(COc2ccc(CCC(=O)O)cc2)cc1)c1ccc(C#N)cc1 (racemic)
A: 10 to 100 nM

Q: Hello, please tell me recorded EC50 for this one: CON=C(COc1ccc(COc2ccc(C(C#N)CC(=O)O)cc2)cc1)c1ccc(C#N)cc1 (mixture of isomers)
A: < 10 nM

Q: Hello, please tell me recorded EC50 for this one: CO/N=C(/COc1ccc(COc2ccc(C(C#N)CC(=O)O)cc2)cc1)c1ccccc1 (stereo not shown) [Compound 53]
A: 10 to 100 nM

###

target-or-test-system: hGPR40 (Homo sapiens, UniProt O14842)
assay-protocol: Calcium flux assay to detect GPR40 activation
test-parameters: CHO-K cells stably expressing hGPR40; Fluo-4 NW; read for 4 min at 5 s intervals
pEC50: −log10 of the molar value.
assay-readout: pEC50

Q: Hello, please tell me recorded pEC50 for this one: CO/N=C(\COc1ccc(COc2ccc(C(C#N)CC(=O)O)cc2)cc1)C1=Cc2ccccc2C1 (stereo not shown)
A: 7.00 to 8.00

Q: Hello, please tell me recorded pEC50 for this one: CO/N=C(\COc1ccc(COc2ccc(C(CC(=O)O)c3c(C)noc3C)cc2)cc1)c1ccccc1 (stereo not shown)
A: < 7.00

Q: Hello, please tell me recorded pEC50 for this one: CO/N=C(\COc1ccc(COc2ccc(C(O)CC(=O)O)cc2)cc1)c1ccccc1 (stereo not shown) [Compound 119]
A: < 7.00

Q: Hello, please tell me recorded pEC50 for this one: CO/N=C(\COc1ccc(COc2ccc(CCC(=O)O)c(OC)c2)cc1)c1ccc(C#N)cc1
A: < 7.00
